Values from the Human Domainome abundance scans (Beltran et al. 2025)

B1: Membrane-associated guanylate kinase, WW and PDZ domain-containing protein 1, residues 352 to 401; numbered along this chain, Q96QZ7 (parent)
chain: TEELDSELELPAGWEKIEDPVYGIYYVDHINRKTQYENPVLEAKRKKQLE

Variants of: B1
Test: abundance fitness (aPCA) (normalised: wild type 0, dead -1); higher = more abundant; growth selection in yeast, the domain comes from the species named
Settings: Homo sapiens
Please note: Condition met applies when abundance fitness is -0.2 or greater, and Condition not met applies otherwise.

Reported abundance fitness at or above -0.2? V21G
Condition not met

Reported abundance fitness at or above -0.2? G23L
Condition not met

Reported abundance fitness at or above -0.2? L4H
Condition met

Reported abundance fitness at or above -0.2? A12S
Condition met

Reported abundance fitness at or above -0.2? K46F
Condition not met

Reported abundance fitness at or above -0.2? A43V
Condition met

Reported abundance fitness at or above -0.2? E3A
Condition not met

Reported abundance fitness at or above -0.2? E15Q
Condition not met

Reported abundance fitness at or above -0.2? P11H
Condition not met

Reported abundance fitness at or above -0.2? T34L
Condition not met

Reported abundance fitness at or above -0.2? R32E
Condition met

Reported abundance fitness at or above -0.2? P39V
Condition not met

Reported abundance fitness at or above -0.2? E15W
Condition not met

Reported abundance fitness at or above -0.2? A43L
Condition met

Reported abundance fitness at or above -0.2? D19N
Condition not met

Reported abundance fitness at or above -0.2? V40T
Condition met

Reported abundance fitness at or above -0.2? R45P
Condition met

Reported abundance fitness at or above -0.2? Q48P
Condition not met

Reported abundance fitness at or above -0.2? K33I
Condition not met

Reported abundance fitness at or above -0.2? E37Y
Condition not met

Reported abundance fitness at or above -0.2? N31S
Condition met

Reported abundance fitness at or above -0.2? S6C
Condition not met

Reported abundance fitness at or above -0.2? G13H
Condition not met

Reported abundance fitness at or above -0.2? P11F
Condition not met

Reported abundance fitness at or above -0.2? I17T
Condition not met

Reported abundance fitness at or above -0.2? H29P
Condition not met

Reported abundance fitness at or above -0.2? E2H
Condition not met

Reported abundance fitness at or above -0.2? I17Q
Condition not met

Reported abundance fitness at or above -0.2? N31H
Condition met

Reported abundance fitness at or above -0.2? V40W
Condition met

Reported abundance fitness at or above -0.2? W14R
Condition not met

Reported abundance fitness at or above -0.2? A12C
Condition met

Reported abundance fitness at or above -0.2? Q48K
Condition met

Reported abundance fitness at or above -0.2? P11D
Condition not met

Reported abundance fitness at or above -0.2? E18A
Condition met

Reported abundance fitness at or above -0.2? Q48W
Condition not met

Reported abundance fitness at or above -0.2? K47P
Condition met

Reported abundance fitness at or above -0.2? K46P
Condition met

Reported abundance fitness at or above -0.2? K46N
Condition not met

Reported abundance fitness at or above -0.2? S6N
Condition met

Reported abundance fitness at or above -0.2? L41R
Condition met

Reported abundance fitness at or above -0.2? Y25W
Condition not met

Reported abundance fitness at or above -0.2? Y36S
Condition met

Reported abundance fitness at or above -0.2? W14N
Condition met

Reported abundance fitness at or above -0.2? E42A
Condition not met

Reported abundance fitness at or above -0.2? A43I
Condition met

Reported abundance fitness at or above -0.2? V21I
Condition met

Reported abundance fitness at or above -0.2? A43W
Condition not met

Reported abundance fitness at or above -0.2? E2C
Condition met

Reported abundance fitness at or above -0.2? I24K
Condition not met

Reported abundance fitness at or above -0.2? I30A
Condition met

Reported abundance fitness at or above -0.2? H29E
Condition not met

Reported abundance fitness at or above -0.2? Y26W
Condition not met

Reported abundance fitness at or above -0.2? S6G
Condition met

Reported abundance fitness at or above -0.2? D5I
Condition met

Reported abundance fitness at or above -0.2? N38E
Condition not met

Reported abundance fitness at or above -0.2? E50H
Condition not met

Reported abundance fitness at or above -0.2? Y25D
Condition not met

Reported abundance fitness at or above -0.2? E18Y
Condition not met

Reported abundance fitness at or above -0.2? K16G
Condition not met

Reported abundance fitness at or above -0.2? D5P
Condition met

Reported abundance fitness at or above -0.2? R45G
Condition met

Reported abundance fitness at or above -0.2? N31A
Condition met

Reported abundance fitness at or above -0.2? L10P
Condition not met

Reported abundance fitness at or above -0.2? E18W
Condition not met

Reported abundance fitness at or above -0.2? Q35W
Condition not met

Reported abundance fitness at or above -0.2? A12R
Condition met

Reported abundance fitness at or above -0.2? L10Q
Condition not met

Reported abundance fitness at or above -0.2? A12V
Condition met

Reported abundance fitness at or above -0.2? H29L
Condition met

Reported abundance fitness at or above -0.2? V40S
Condition met

Reported abundance fitness at or above -0.2? I30L
Condition met

Reported abundance fitness at or above -0.2? T34Y
Condition not met

Reported abundance fitness at or above -0.2? T34D
Condition not met

Reported abundance fitness at or above -0.2? E2M
Condition not met

Reported abundance fitness at or above -0.2? P11C
Condition not met

Reported abundance fitness at or above -0.2? I24W
Condition not met

Reported abundance fitness at or above -0.2? E7A
Condition met

Reported abundance fitness at or above -0.2? P39E
Condition not met

Reported abundance fitness at or above -0.2? K16A
Condition not met

Reported abundance fitness at or above -0.2? Q48G
Condition not met

Reported abundance fitness at or above -0.2? Y22E
Condition met

Reported abundance fitness at or above -0.2? L10D
Condition not met

Reported abundance fitness at or above -0.2? P11V
Condition not met

Reported abundance fitness at or above -0.2? L49Y
Condition met

Reported abundance fitness at or above -0.2? L49M
Condition met

Reported abundance fitness at or above -0.2? K44V
Condition not met

Reported abundance fitness at or above -0.2? N31K
Condition not met

Reported abundance fitness at or above -0.2? W14P
Condition not met

Reported abundance fitness at or above -0.2? E9L
Condition not met
